From various publications: IC50 for HPK1 (Homo sapiens (Human), UniProt Q92918).

Below: 5 compounds and their reported IC50.
>>> result("CN1CCN2c3ccc(-c4n[nH]c5cc(C#N)c(-c6cnccn6)cc45)cc3OCC2C1 (stereo not shown)")
"≤ 10 nM"
>>> result("CNCc1cc(C)c(-c2cc3c(-c4ccc5c(c4)OCC4CN(CC(F)(F)F)CCN54)n[nH]c3cc2C#N)c(F)c1 (stereo not shown)")
"≤ 10 nM"
>>> result("COc1cc2c(cc1Nc1ncc3ccc(Nc4cc(S(C)(=O)=O)c(C)cc4C)cc3n1)CN(C)CC2")
"3.17 nM"
>>> result("O=C1NCc2c(-c3c[nH]c4ccccc34)ncc(Nc3ccc(N4CCOCC4)cn3)c21")
"100 to 1000 nM"
>>> result("CC(C)(O)[C@@H]1COCCN(c2ccc(Nc3ccc(-c4cnc5cc(F)ccn45)c4c3C(=O)NC4)nc2)C1")
"< 100 nM"

For every listed record, write down its IC50.
1. CN1CCN(c2ccc(Nc3cnc(-c4c[nH]c5cc(O)ccc45)c4c3C(=O)NC4)nc2)CC1
2. C[C@@H](c1ccc(Nc2ccc(-c3cnc4cnccn34)c3c2C(=O)NC3)nc1CN(C)C)C1CCOCC1

1: 100 to 1000 nM; 2: ≤ 100 nM

---

From various publications: IC50 for HPK1 (Homo sapiens (Human), UniProt Q92918).

Below: 5 molecules and their reported IC50.
>>> result("CN1CCN(c2ccc(Nc3cc(-c4ccc(C(=O)N5CC6C(C5)C6(F)F)cc4F)nc4cc[nH]c(=O)c34)nc2)CC1 (stereo not shown)")
"≤ 100 nM"
>>> result("CN(C)C[C@]1(O)CCCN(c2ccc(Nc3ccc(-c4cnc5cc(F)ccn45)c4c3C(=O)NC4)nc2)C1")
"< 100 nM"
>>> result("CCS(=O)(=O)Cc1ccc(Nc2ncc3c(N)c(F)c(-c4cnc5c(c4C)NCC(C)(C)O5)cc3n2)c(F)c1")
"0.232 nM"
>>> result("COC1(c2ccc(Nc3ccc(-c4cnc5cc(F)ccn45)c4c3C(=O)NC4)nc2CN(C)C)CC1")
"< 100 nM"
>>> result("C[C@H]1CN(c2c(NC(=O)c3ccc(=O)n(-c4c(F)cccc4F)n3)ccc3c2cnn3[C@H]2CCOC2)C[C@@H]1N")
"< 100 nM"

For every listed record, write down its IC50.
1. C/C(Nc1cc(C(C)(C)O)n(C)n1)=C1/C(=O)Nc2cnc(-c3cnccc3C)cc21
2. CN(C)Cc1nc(Nc2ccc(-c3cnc4cc(F)ccn34)c3c2C(=O)NC3)ccc1N1CCC[C@@H](O)C1

1: < 50 nM; 2: < 100 nM

---

pIC50: −log10 of the molar value.
From various publications: pIC50 for HPK1 (Homo sapiens (Human), UniProt Q92918).

>>> result("CCn1ncc(C)c1Nc1nc(Nc2cc3c(cc2OC)CCN(C)C3)ncc1C(N)=O")
7.73

For every listed record, write down its pIC50.
1. CCN(CC)Cc1nc(Nc2ccc(-c3cnc4cc(F)ccn34)c3c2C(=O)NC3)ccc1[C@H]1CCOC1
2. CC(C)n1cc2c(N3CC[C@@](C)(N)C3)c(NC(=O)c3ccc(=O)n(-c4c(F)cccc4F)n3)ccc2n1
3. CC/C(Nc1ccn(C(C)(C)C#N)n1)=C1/C(=O)Nc2cnc(-c3cnccc3C)cc21
4. CN1CCN2c3ccc(-c4n[nH]c5cc(C#N)c(-c6cnn7cccnc67)cc45)cc3OCC2C1 (stereo not shown)
5. CN(C)C1CCc2c1ccc(-c1cc(Nc3ccc(N4CCC(O)CC4)cn3)c3c(=O)[nH]ccc3n1)c2F (stereo not shown)
6. CNc1ncc2c(n1)N1CCN=C1C(c1cc(NC(=O)c3cc(C(F)(F)F)c[nH]c3=O)ccc1C)=C2

["> 7.00", "> 7.00", "> 7.30", "≥ 8.00", "6.00 to 7.00", "5.00 to 7.00"]

For every listed record, write down its pIC50.
1. COc1cc2c(cc1Nc1ncc3ccc(-c4cnc5cccnc5c4)cc3n1)CN(C)CC2
2. CNCc1cc(C)c(-c2cc3c(-c4ccc5c(c4)OCC4CN(C)CCN54)n[nH]c3cn2)c(F)c1 (stereo not shown)
3. Cc1csc2[nH]c(=O)c(-c3nc4ccc(N5CCN(C)CC5)cc4[nH]3)c(NC3CCOCC3)c12
4. Cc1cc(-c2cnc3[nH]cc(-c4ccc(C(=O)N(C)C[C@H](C)O)cc4)c3c2)cc2c1N1CCN(C)C[C@@H]1CC2
5. CN1CCN(c2ccc(Nc3ccc(-c4c[nH]c5ncccc45)c4c3C(=O)NC4)nc2)CC1
6. O=C1NCc2c(-c3ccnn4ccnc34)ncc(Nc3ccc(N4CCC(O)CC4)cn3)c21
7. CN(C)CCN(C)C(=O)c1ccc(-c2c[nH]c3ncc(-c4ccc5c(c4)OCC4CN(C)CCN54)cc23)cc1 (stereo not shown)
8. Nc1c(-c2nc3cc(C(=O)N4CCOCC4)ccc3[nH]2)c(=O)[nH]c2sccc12

1: 7.70; 2: ≥ 8.00; 3: < 6.30; 4: 7.72; 5: > 7.00; 6: < 6.00; 7: ≥ 8.00; 8: 6.30 to 7.30

pIC50 lookup needed for `COCCNc1ccn2c(-c3ccc(Nc4ccc(N5CCC(O)CC5)cn4)c4c3CNC4=O)cnc2c1` , thanks.
6.00 to 7.00

---

From various publications: IC50 for HPK1 (Homo sapiens (Human)).

Below: 5 molecules and their reported IC50.
>>> result("Cc1cccc(F)c1-n1nc2c(-c3ccc(N4CCN5CCOC[C@@H]5C4)cc3)n[nH]c2cc1=O")
"≤ 50 nM"
>>> result("COc1cc2c(cc1Nc1ncc(C(N)=O)c(NC3CCC(OC)CC3)n1)CN(C)CC2 (centres unmarked)")
"5.18 nM"
>>> result("Cc1cc(-c2c[nH]c3ncc(-c4cc(C)c5c(c4)CN(C)CC5)nc23)ccc1C(=O)N(C)C")
"26 nM"
>>> result("COc1cccc(F)c1-c1cc2c(cn1)NC(=O)/C2=C(/C)Nc1ccc(N2CCNCC2)cn1")
"< 50 nM"
>>> result("CCNC(=O)C(C)(C)c1ccc(Nc2cc(-c3c(F)cccc3F)nc3cc[nH]c(=O)c23)nc1")
"100 to 1000 nM"

For every listed record, write down its IC50.
1. COCCN(C)Cc1nc(Nc2ccc(-c3cnc4cc(F)ccn34)c3c2C(=O)NC3)ccc1C1CCOC1 (stereo in doubt)
2. C[C@H]1CCn2c(-c3ccc(Nc4ccc(N5CCC(O)CC5)cn4)c4c3CNC4=O)cnc2C1
3. COCCNc1c(-c2nc3ccc(N4CCN(C)CC4)cc3[nH]2)c(=O)[nH]c2sccc12

1: < 100 nM; 2: < 100 nM; 3: ≤ 50 nM

---

pIC50: −log10 of the molar value.
From various publications: pIC50 for UniProtKB Q92918.

Below: 2 molecules and their reported pIC50.
>>> result("COCC1CN(c2ccc(Nc3ccc(-c4cnc5cc(F)ccn45)c4c3C(=O)NC4)nc2CN(C)C)CCO1 (stereo in doubt)")
"> 7.00"
>>> result("Cc1cccc(-c2cc(Nc3ccc(N4CCC(O)CC4)cn3)c3c(=O)[nH]ccc3n2)c1F")
"6.00 to 7.00"

For every listed record, write down its pIC50.
1. N[C@H]1CN(c2c(NC(=O)c3ccc(=O)n(-c4c(F)cccc4F)n3)ccc3c2cnn3[C@@H]2CCOC2)CC12CC2
2. CC(C)n1ncc2c(N3C[C@@H]4[C@@H](N)[C@@H]4C3)c(NC(=O)c3ccc(=O)n(-c4c(F)cccc4F)n3)ccc21
3. CN1CCN(c2ccc(Nc3ccc(-c4cnc5n4CCNC5)c4c3C(=O)NC4)nc2)CC1
4. Cc1cc(-c2cnc(N)c(-n3cc(C(=O)NCc4ccc(F)cc4Cl)cn3)n2)cc2c1CCN(C)C2
5. CN1CCN(c2ccc(Nc3ccc(-c4ccncc4)c4c3C(=O)NC4)nc2)CC1
6. CN1CCN(CC2(O)CCN(c3ccc(Nc4ccc(-c5cnc6cc(F)ccn56)c5c4C(=O)NC5)nc3)CC2)CC1

> 7.00
> 7.00
> 7.00
8.12
> 6.00
> 7.00

For every listed record, write down its pIC50.
1. COc1cc2c(cc1Nc1ncc(C(N)=O)c(NCC3CCNCC3)n1)CN(C)CC2
2. CS(=O)(=O)Cc1ccc(Nc2ncc(C(N)=O)c(Nc3cccc4c3CCNC4=O)n2)cc1
3. C/C(Nc1cc(C)n([C@H](C)C#N)n1)=C1/C(=O)Nc2cnc(-c3c(C)cccc3F)cc21

8.91
8.67
> 7.30

For every listed record, write down its pIC50.
1. CN1C[C@H](c2ccc(Nc3ccc(-c4cnc5cnccn45)c4c3C(=O)NC4)nc2)CC1=O
2. O=C1NCc2c(Cc3ccccc3)ccc(Nc3ccc(N4CCNCC4)cn3)c21
3. O=C1NCc2c(-c3cnc4cc(F)ccn34)ccc(Nc3ccc(N4CCC(N5CCOCC5)CC4)cn3)c21
4. Cc1cc(-c2c[nH]c3ncc(-c4cc(C)c5c(c4)CC[C@@H]4CN(C)CCN54)nc23)ccc1C(=O)N(C)C

1. > 7.00
2. 5.30 to 6.00
3. > 7.00
4. 7.44
